Biological target: Mitogen-activated protein kinase 8 (Homo sapiens, UniProt P45983)
Sequence (P45983 whole entry): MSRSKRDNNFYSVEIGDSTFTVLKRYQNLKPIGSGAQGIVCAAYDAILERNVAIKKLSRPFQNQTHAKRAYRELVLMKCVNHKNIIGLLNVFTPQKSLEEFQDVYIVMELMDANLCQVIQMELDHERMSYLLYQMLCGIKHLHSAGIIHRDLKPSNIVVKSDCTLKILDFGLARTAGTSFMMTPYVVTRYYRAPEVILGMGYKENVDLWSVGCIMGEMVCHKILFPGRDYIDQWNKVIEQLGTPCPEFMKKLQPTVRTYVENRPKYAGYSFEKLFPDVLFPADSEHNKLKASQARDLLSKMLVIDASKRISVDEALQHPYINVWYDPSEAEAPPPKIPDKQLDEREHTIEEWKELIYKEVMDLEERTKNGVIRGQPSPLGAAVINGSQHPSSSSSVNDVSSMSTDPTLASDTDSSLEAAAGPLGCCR
Experiment: Inhibition of JNK1 using biotinylated ATF2 and ATP substrates by HTRF assay
Property measured: IC50

Check the records and state IC50 for `C=CCN1CCN(c2c(Cl)cccc2NC(=O)c2ncccn2)CC1`
> 20 µM

Check the records and state IC50 for `C=CCN1CCN(c2c(Cl)cccc2NC(=O)c2ccc(C#N)cn2)CC1`
> 20 µM

Check the records and state IC50 for `C=CCN1CCN(c2c(NC(=O)c3ccc(Br)o3)cccc2-c2ccccc2)CC1`
> 20 µM

Check the records and state IC50 for `C=CCN1CCN(c2c(NC(=O)c3ccc(Br)o3)cccc2Nc2ccccc2)CC1`
> 20 µM

Check the records and state IC50 for `C=CCN1CCN(c2c(Br)cccc2NC(=O)c2ccc(Br)o2)CC1`
> 20 µM

Check the records and state IC50 for `Cc1cccc(NC(=O)c2ccc(Nc3ccccc3)o2)c1N1CCC2(CC1)OCCO2`
> 20 µM

Check the records and state IC50 for `C=CCN1CCN(c2c(NC(=O)c3ccc(Br)o3)cccc2C(F)(F)F)CC1`
> 20 µM

Check the records and state IC50 for `O=C(Nc1cccc(Cl)c1N1CCN(C(=O)C(F)(F)F)CC1)c1ccc(Br)o1`
> 20 µM
